EXPERIMENTAL_PROTOCOL: Cytotoxicity in Vero 76 cells (Table 4)
PARTICULARS: African green monkey
ASSAY_METRIC: CC90 at 3 days

## Input Check the records and state CC90 at 3 days for COc1cccc(-c2ccc(NC(=O)C3=C(C(=O)O)CCC3)c(F)c2)c1 [IMU-838]
## Output > 100 µM

* * *

EXPERIMENTAL_PROTOCOL: Cytotoxicity on fibroblasts
ASSAY_METRIC: IC50

## Input Check the records and state IC50 for COc1cccc(-c2ccc(NC(=O)C3=C(C(=O)O)CCC3)c(F)c2)c1
## Output > 30 µM

* * *

EXPERIMENTAL_PROTOCOL: in vitro
PARTICULARS: African green monkey
ASSAY_METRIC: CC50

## Input Check the records and state CC50 for COc1cccc(-c2ccc(NC(=O)C3=C(C(=O)O)CCC3)c(F)c2)c1 [IMU-838]
## Output > 100 µM
